# MEASURED_TARGET: Human NOS-2 (Homo sapiens)
# Sequence (P35228 whole entry): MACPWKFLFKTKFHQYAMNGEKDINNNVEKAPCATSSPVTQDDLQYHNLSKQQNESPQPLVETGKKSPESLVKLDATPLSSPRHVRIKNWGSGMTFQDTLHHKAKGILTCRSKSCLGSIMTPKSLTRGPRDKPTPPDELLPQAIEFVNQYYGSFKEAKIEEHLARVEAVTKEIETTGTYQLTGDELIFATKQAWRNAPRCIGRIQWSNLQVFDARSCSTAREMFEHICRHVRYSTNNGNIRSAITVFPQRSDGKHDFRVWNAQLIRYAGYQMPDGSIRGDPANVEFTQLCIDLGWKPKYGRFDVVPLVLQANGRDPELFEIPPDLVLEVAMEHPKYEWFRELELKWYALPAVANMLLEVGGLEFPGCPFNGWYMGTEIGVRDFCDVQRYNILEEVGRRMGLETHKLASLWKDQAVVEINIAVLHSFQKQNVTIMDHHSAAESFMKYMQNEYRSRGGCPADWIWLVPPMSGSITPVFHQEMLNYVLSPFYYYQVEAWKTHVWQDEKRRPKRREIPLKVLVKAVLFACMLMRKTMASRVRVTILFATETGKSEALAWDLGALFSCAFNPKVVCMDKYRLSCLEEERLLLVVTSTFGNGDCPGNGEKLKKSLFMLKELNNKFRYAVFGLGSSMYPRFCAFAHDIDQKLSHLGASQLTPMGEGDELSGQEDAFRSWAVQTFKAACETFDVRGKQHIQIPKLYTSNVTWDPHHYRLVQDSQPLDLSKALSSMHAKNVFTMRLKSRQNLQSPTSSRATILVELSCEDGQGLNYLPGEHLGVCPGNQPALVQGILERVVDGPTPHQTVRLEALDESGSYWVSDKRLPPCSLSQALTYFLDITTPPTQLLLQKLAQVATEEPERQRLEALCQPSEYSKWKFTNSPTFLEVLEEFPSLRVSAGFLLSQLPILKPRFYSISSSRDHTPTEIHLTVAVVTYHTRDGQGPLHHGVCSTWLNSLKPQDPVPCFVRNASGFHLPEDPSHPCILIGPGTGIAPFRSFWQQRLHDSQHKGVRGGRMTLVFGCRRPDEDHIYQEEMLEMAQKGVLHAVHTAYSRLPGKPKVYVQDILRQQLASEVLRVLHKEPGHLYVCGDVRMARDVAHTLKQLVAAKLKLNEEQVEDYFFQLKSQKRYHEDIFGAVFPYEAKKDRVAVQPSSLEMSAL
pIC50: −log10 of the molar value.
RECORDED_METRIC: pIC50

In the examples that follow, each entry is paired with its recorded pIC50.
- COMPOUND: "NCCCCCOc1cc(=O)oc2ccc(Cl)cc12"
  pIC50: 5.89
- COMPOUND: "Cc1ccc2oc(=O)cc(OCCCN(C)C)c2c1"
  pIC50: 5.33
- COMPOUND: "NCCCOc1cc(=O)oc2ccc(Br)cc12"
  pIC50: 7.00
- COMPOUND: "NCCCOc1cc(=O)oc2ccc(F)cc12"
  pIC50: 5.96
- COMPOUND: "NCCCCOc1cc(=O)oc2ccc(Cl)cc12"
  pIC50: 5.70
- COMPOUND: "CN(C)CCCOc1cc(=O)oc2ccc(Cl)cc12"
  pIC50: 5.39

a: CN(C)CCCOc1cc(=O)oc2ccccc12
b: O=c1cc(OCCC2CCCCN2)c2cc(Cl)ccc2o1 (centres unmarked)
c: Cc1ccc2oc(=O)cc(OCCCN)c2c1
d: CNCCCOc1cc(=O)oc2ccc(Cl)cc12
Q: Order the 4 compounds from highest to lowest pIC50. Give the labels in the order requested.
Ans: d, c, b, a
(d: 6.96, c: 6.52, b: 5.70, a: 5.40)
